- ASSAY_SYSTEM: BRG-1 (Homo sapiens, UniProt P51532)
- Construct: made in house; host or cells: High Five insect cells
- Sequence (P51532 whole entry): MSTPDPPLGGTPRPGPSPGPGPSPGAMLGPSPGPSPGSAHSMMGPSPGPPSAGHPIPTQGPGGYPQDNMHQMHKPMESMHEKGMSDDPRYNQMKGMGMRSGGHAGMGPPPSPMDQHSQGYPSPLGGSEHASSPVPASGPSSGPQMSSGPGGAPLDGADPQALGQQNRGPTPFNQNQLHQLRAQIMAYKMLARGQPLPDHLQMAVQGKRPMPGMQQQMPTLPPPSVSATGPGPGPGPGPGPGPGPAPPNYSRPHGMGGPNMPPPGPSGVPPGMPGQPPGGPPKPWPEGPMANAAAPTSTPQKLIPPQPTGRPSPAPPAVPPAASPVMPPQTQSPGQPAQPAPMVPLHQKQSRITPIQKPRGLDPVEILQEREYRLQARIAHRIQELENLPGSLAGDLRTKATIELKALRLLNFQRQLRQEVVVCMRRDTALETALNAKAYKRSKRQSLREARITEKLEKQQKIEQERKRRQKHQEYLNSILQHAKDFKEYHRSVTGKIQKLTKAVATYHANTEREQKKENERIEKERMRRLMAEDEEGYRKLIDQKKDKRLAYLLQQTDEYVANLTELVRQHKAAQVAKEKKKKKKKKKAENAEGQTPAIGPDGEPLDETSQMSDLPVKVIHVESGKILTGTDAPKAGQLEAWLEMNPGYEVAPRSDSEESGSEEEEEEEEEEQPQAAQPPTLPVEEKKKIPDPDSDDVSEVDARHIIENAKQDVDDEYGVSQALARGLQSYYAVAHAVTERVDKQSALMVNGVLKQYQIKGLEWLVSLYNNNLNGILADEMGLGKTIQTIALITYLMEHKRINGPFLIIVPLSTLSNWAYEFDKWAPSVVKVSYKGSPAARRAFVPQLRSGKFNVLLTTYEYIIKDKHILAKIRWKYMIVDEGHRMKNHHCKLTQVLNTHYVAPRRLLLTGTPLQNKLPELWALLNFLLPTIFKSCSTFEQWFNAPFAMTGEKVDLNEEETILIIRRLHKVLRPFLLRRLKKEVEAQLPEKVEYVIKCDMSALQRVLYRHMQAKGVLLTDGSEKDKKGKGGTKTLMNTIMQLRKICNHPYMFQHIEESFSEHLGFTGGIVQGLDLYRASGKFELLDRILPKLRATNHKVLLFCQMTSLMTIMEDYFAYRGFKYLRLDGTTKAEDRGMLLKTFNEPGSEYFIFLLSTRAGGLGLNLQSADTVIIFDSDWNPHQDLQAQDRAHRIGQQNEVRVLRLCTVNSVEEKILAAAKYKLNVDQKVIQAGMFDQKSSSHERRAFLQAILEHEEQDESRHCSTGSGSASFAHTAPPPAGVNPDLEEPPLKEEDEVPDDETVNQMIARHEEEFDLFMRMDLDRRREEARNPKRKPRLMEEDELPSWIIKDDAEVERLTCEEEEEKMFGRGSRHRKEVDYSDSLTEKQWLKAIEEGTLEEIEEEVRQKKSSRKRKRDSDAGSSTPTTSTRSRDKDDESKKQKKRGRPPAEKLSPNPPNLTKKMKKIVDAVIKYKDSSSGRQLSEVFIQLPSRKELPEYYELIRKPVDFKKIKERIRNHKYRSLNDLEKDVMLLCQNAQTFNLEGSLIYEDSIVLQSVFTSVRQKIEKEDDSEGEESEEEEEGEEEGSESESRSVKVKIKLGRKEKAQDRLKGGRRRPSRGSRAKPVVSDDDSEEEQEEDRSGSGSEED
- PROTOCOL_NOTES: ATPase catalytic activity of BRG-1, ADP-Glo in vitro biochemical assay
- MEASUREMENT_CONDITIONS: ATPase catalytic activity, ADP-Glo; 30 nM BRG-1, 400 μM ATP; read-out: BRG1 IC50
- Experimental: The ATPase catalytic activity of BRM or BRG-1 was measured by an in vitro biochemical assay using ADP-Glo™ (Promega, V9102). The ADP-Glo™ kinase assay is performed in two steps once the reaction is complete. The first step is to deplete any unconsumed ATP in the reaction. The second step is to convert the reaction product ADP to ATP, which will be utilized by the luciferase to generate luminesce and be detected by a luminescence reader, such as Envision. […]
pIC50: −log10 of the molar value.
QUANTITY_NAME: pIC50

[a] O=C(NCc1cc2nc(-c3cccc4c3OCC[C@@H]4OC3COC3)ccc2cn1)c1ccc2c(c1)S(=O)(=O)CCOC2
[b] CN(CCC(F)F)c1cccc(-c2ccc3cnc(CNC(=O)c4ccc5c(c4)S(=O)(=O)CCOC5)cc3n2)n1
[c] O=C(NCc1cc2nc(-c3cccc(N4CC(C5COC5)C4)n3)ccc2cn1)c1ccc2c(c1)S(=O)(=O)CCOC2
[d] COCCn1ccc2c(-c3ccc4cnc(CNC(=O)c5ccc6c(c5)S(=O)(=O)CCOC6)cc4n3)ccnc21
[e] O=C(NCc1cc2nc(N3CCCc4ccc(N5CCC5)nc43)ccc2cn1)c1ccc2c(c1)S(=O)(=O)CCOC2
Output the listed items in decreasing order of pIC50. Labels, requested order. c, d, b, e, a
(c: 7.24, d: 6.97, b: 6.63, e: 6.17, a: 5.96)

---

- ASSAY_SYSTEM: BRM (Homo sapiens)
- Construct: made in house; host or cells: High Five insect cells
- Sequence (P51531 whole entry): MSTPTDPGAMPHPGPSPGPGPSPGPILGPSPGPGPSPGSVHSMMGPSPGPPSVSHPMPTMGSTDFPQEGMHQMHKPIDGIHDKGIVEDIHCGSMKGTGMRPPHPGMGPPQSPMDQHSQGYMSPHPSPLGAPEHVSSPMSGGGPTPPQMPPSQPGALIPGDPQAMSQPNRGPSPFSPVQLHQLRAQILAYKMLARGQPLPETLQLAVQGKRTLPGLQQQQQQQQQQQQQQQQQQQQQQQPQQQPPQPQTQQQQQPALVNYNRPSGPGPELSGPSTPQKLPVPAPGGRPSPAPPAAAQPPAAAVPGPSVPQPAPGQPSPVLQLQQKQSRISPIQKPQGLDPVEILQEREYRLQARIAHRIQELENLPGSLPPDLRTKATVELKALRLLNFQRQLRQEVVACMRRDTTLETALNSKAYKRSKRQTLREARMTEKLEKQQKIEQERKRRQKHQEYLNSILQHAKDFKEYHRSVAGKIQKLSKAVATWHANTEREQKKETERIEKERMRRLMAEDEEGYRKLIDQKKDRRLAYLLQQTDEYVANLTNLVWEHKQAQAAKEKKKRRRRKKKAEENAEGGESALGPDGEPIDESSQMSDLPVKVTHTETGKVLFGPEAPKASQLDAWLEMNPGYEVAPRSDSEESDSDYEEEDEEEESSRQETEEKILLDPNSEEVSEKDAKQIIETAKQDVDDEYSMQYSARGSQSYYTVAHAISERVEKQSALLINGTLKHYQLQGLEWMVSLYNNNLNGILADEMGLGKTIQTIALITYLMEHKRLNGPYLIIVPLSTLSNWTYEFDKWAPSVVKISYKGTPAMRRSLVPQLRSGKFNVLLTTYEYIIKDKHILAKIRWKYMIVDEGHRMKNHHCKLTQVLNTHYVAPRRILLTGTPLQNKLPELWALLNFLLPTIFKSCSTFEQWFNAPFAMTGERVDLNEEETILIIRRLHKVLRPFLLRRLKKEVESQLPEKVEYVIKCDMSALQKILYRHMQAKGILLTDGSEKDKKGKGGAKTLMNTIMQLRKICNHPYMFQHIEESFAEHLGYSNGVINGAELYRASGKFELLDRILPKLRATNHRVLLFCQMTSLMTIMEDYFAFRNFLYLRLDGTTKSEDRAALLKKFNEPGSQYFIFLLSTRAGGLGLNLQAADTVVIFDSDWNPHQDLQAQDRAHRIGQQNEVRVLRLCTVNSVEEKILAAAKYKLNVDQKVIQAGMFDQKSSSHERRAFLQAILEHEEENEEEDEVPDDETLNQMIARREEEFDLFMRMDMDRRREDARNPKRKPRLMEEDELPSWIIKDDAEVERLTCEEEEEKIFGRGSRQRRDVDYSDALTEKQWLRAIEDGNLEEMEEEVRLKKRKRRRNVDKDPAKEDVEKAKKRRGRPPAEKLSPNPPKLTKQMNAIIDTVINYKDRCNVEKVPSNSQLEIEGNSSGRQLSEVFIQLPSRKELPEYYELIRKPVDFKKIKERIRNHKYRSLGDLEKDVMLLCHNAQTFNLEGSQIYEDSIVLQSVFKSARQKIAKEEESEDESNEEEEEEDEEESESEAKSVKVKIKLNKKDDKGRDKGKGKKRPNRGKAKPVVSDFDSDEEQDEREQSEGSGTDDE
- PROTOCOL_NOTES: ATPase catalytic activity of BRM, ADP-Glo in vitro biochemical assay
- MEASUREMENT_CONDITIONS: ratio BRG1 IC50 / BRM IC50
QUANTITY_NAME: Ratio*

{"columns": ["MOLECULE", "Ratio*"],
 "data": [
  ["O=C(NCc1cc2nc(N3CCOc4cc(F)c(C5CC5)nc43)ccc2cn1)c1ccc2c(c1)S(=O)(=O)CCOC2 [Compound 751]", 63.48],
  ["COCCN1CCc2ccc(-c3ccc4cnc(CNC(=O)c5ccc6c(c5)S(=O)(=O)CCOC6)cc4n3)nc2C1 [Compound 772]", 7.26],
  ["COCc1cc(F)c2c(c1)OCCN2c1ccc2cnc(CNC(=O)c3ccc4c(c3)S(=O)(=O)CCOC4)cc2n1 [Compound 796]", 13.06],
  ["O=C(NCc1cc2nc(N3CCC(F)(F)c4cccnc43)ccc2cn1)c1ccc2c(c1)S(=O)(=O)CCOC2 [Compound 767]", 11.17]
]}

[P] O=C(NCc1cc2nc(N3CCCc4cc5c(cc43)OCCO5)ccc2cn1)c1ccc2c(c1)S(=O)(=O)CCOC2 [Compound 793]
[Q] Cc1ccnc2c1CCN2c1ccc2cnc(CNC(=O)c3ccc4c(c3)S(=O)(=O)CCOC4)cc2n1 [Compound 743]
Please state the entry with greater Ratio* among P and Q . Mark your answer with the label of the selected entry. P
